protocolText: NOVARTIS: Cytotoxicity against human hepatocellular carcinoma cell line (Huh7)
Assay type: toxicity, cell-based, Huh-7
measurementContext: Huh7 cells (hepatocellular carcinoma cell line)
Hi there, I'd appreciate the recorded CC50 for every entry that follows.

Given item Cc1ccc(-n2c(=S)sc3c(=O)n(-c4ccccc4)c(SCC(=O)c4ccccc4)nc32)cc1C , the value recorded as its CC50 is > 10 µM

Given item CCOC(=O)c1sc(NC(=O)CSc2nnc(CNC(=O)c3ccco3)n2-c2ccc(F)cc2)c(C(=O)OCC)c1C , the value recorded as its CC50 is > 10 µM

Given item CC1CCCCN1CCCNc1ncc(C(=O)NCCCN2CCCC2=O)c(NCC2CCCCC2)n1 (stereo unspecified) , the value recorded as its CC50 is > 10 µM

Given item COc1cc(NC(C)=C2C(=O)c3ccccc3C2=O)c(OC)cc1Cl , the value recorded as its CC50 is > 100 µM

Given item OCCN1CCN(c2cc(-c3cccnc3)nc(-c3ccncc3)n2)CC1 , the value recorded as its CC50 is > 10 µM

Given item CCCc1nc2ccc(NC(=O)c3ccccc3F)cc2c(=O)n1Cc1ccc(-c2ccccc2)cc1 , the value recorded as its CC50 is > 100 µM

Given item COc1ccc(-c2nc(-c3ccncc3)cnc2N)cc1OC , the value recorded as its CC50 is > 10 µM

Given item COc1ccc(C2N=C(N)N=C(N)N2c2ccc(Cl)cc2)cc1OC (stereo unspecified) , the value recorded as its CC50 is > 10 µM

Given item CC(C)(C)c1ccc(NC(=O)CN2CCCCC2)cc1 , the value recorded as its CC50 is 49.7 µM

Given item Oc1ccc(-c2ccnc3cc(Cl)ccc23)cc1CNCCCn1ccnc1 , the value recorded as its CC50 is > 10 µM

Given item Cc1ccc(Nc2nc(NCc3ccco3)c3ccccc3n2)cc1 , the value recorded as its CC50 is 5.27 µM

Given item COC(=O)c1ccc(N(C(=O)Cc2c[nH]c3ccccc23)C(C(=O)NC2CCCCC2)c2ccccc2F)cc1 (stereo unspecified) , the value recorded as its CC50 is > 100 µM

Given item Clc1ccccc1CN1CCc2nc(N3CCCCC3)sc2C1 , the value recorded as its CC50 is > 100 µM

Given item CCOC(=O)c1[nH]c(C)c(CNc2cccc(OC)c2)c1C , the value recorded as its CC50 is 6.98 µM

Given item COc1ccc(-c2noc(-c3cccc(I)c3)n2)cc1OC , the value recorded as its CC50 is > 13.6 µM

Given item COc1ccc(CCNc2nc(NCCCN3CCCC3)ncc2C(=O)NCC(C)C)cc1OC , the value recorded as its CC50 is > 10 µM

Given item COc1ccc2nc(C)cc(Nc3ccc(N4CCN(C)CC4)cc3)c2c1 , the value recorded as its CC50 is 7.33 µM

Given item CN1CCN(Cc2c(O)ccc3c(=O)c(Oc4ccc(C(C)(C)C)cc4)c(C(F)(F)F)oc23)CC1 , the value recorded as its CC50 is > 100 µM

Given item N#CC(=Cc1cn(Cc2ccccc2Cl)c2ccccc12)c1nn(CCO)c(N)c1C#N , the value recorded as its CC50 is 44.8 µM

Given item COc1cccc(NC(=O)c2ccc(NCCCN3CCC(C)CC3)c([N+](=O)[O-])c2)c1 , the value recorded as its CC50 is 18.7 µM

Given item O=C(CCCOc1ccc(Cl)cc1Cl)NCCCn1ccnc1 , the value recorded as its CC50 is > 10 µM
